Catalogue of TGI values
System: NCI-H23 lung
protocol: NCI tumour cell line growth inhibition, 48 h

{"compound": "CC(C)CCS(=O)(=O)OCCCCOS(=O)(=O)CCC(C)C", "TGI": "> 100 µM"}
{"compound": "N#Cc1c(-c2ccccc2)/c(=C\\Nc2cccc(C(F)(F)F)c2)c(=O)n2c1nc1ccccc12", "TGI": "> 100 µM"}
{"compound": "COc1cc2c(c(OC)c1OC)-c1ccc(NNC(N)=S)c(=O)cc1[C@@H](NC(C)=O)CC2", "TGI": "> 49.9 µM"}
{"compound": "O=[N+]([O-])c1ccc2c(c1)/C(=N/N=C1c3ccccc3Cc3ccccc31)c1cc([N+](=O)[O-])cc([N+](=O)[O-])c1-2", "TGI": "3.85 µM"}
{"compound": "Fc1[nH]nc2ccc([C@@H]3Nc4ccc5[nH]ncc5c4[C@H]4C5CCC(C5)[C@@H]34)cc12 (some centres undefined)", "TGI": "15.9 µM"}
{"compound": "CN(C)N=Nc1ccc(C(N)=O)cc1", "TGI": "> 100 µM"}
{"compound": "Cc1cn2c(/C=N/N=C(N)N)c(-c3cccc([N+](=O)[O-])c3)nc2s1", "TGI": "5.11 µM"}
{"compound": "COc1cc(C(=O)N(C(=S)OCc2ccccn2)c2ccccc2)cc(OC)c1OC", "TGI": "> 100 µM"}
{"compound": "Cc1c(O)c(O)cc[n+]1C1OC(CO)C(O)C1O (centres undefined)", "TGI": "> 100 µM"}

====

Tested on: HCT-15 colon
protocol: NCI tumour cell line growth inhibition, 48 h
Catalogue of TGI values

{"compound": "Cc1nc2c(ccc3ncccc32)[nH]1", "target-or-test-system": "HCT-15 colon", "TGI": "> 100 µM"}
{"compound": "O=[N+]([O-])c1ccc2c(c1)/C(=N/N=C1c3ccccc3Cc3ccccc31)c1cc([N+](=O)[O-])cc([N+](=O)[O-])c1-2", "target-or-test-system": "HCT-15 colon", "TGI": "4.99 µM"}
{"compound": "COc1ccccc1N1C(=O)C2c3[nH]c4ccccc4c3C3CCC(C(C)(C)C)CC3C2C1=O (stereo unspecified)", "target-or-test-system": "HCT-15 colon", "TGI": "> 100 µM"}
{"compound": "COC(=O)c1c(C)cccc1C1CN=NC12Cc1ccc(C)cc1C2=O (stereo unspecified)", "target-or-test-system": "HCT-15 colon", "TGI": "> 100 µM"}
{"compound": "Cc1cn2c(/C=N/N=C(N)N)c(-c3cccc([N+](=O)[O-])c3)nc2s1", "target-or-test-system": "HCT-15 colon", "TGI": "19.6 µM"}
{"compound": "CC(=O)[CH-]C(=O)c1ccccc1.CC(=O)[CH-]C(=O)c1ccccc1.CN(C)c1ccc([O-])cc1.CN(C)c1ccc([O-])cc1.Cl.[Ti+4]", "target-or-test-system": "HCT-15 colon", "TGI": "> 31.6 µM"}
{"compound": "CCn1c(C)nn2c(=O)c3ccccc3nc2c1=O", "target-or-test-system": "HCT-15 colon", "TGI": "> 100 µM"}
{"compound": "C=CCN1C[C@H](C)N([C@H](c2ccc(C(=O)NC(CC)CC)cc2)c2cccc(OC)c2)C[C@H]1C", "target-or-test-system": "HCT-15 colon", "TGI": "> 100 µM"}
{"compound": "O=c1[nH]c(Nc2cccc(CC(F)(F)F)c2)nc2nc[nH]c12", "target-or-test-system": "HCT-15 colon", "TGI": "> 100 µM"}
{"compound": "CN1CCN(C2=NCCO2)CC1", "target-or-test-system": "HCT-15 colon", "TGI": "> 100 µM"}
{"compound": "CCOC(=O)c1cn2c(n1)sc1cccc(C)c12", "target-or-test-system": "HCT-15 colon", "TGI": "> 100 µM"}
{"compound": "COc1ccc(-c2c(C#N)c(-c3ccc(C)cc3)n(NS(=O)(=O)c3ccc(C)cc3)c(=O)c2C#N)cc1", "target-or-test-system": "HCT-15 colon", "TGI": "> 100 µM"}
{"compound": "CC(C)(C)N1CSC(=S)N(Cc2ccco2)C1", "target-or-test-system": "HCT-15 colon", "TGI": "10.6 µM"}
{"compound": "CC1(C(=O)O)CCC[C@@]2(C)C1CC[C@@]1(C)c3cocc3CCC21 (stereo partly specified)", "target-or-test-system": "HCT-15 colon", "TGI": "> 100 µM"}
{"compound": "O=C(O)CCC(NC(=O)c1ccc(Nc2nc3ccccc3nc2-c2cccs2)cc1)C(=O)O (stereo unspecified)", "target-or-test-system": "HCT-15 colon", "TGI": "> 100 µM"}
{"compound": "CC(=O)OC1OC([C@@H]2c3cccc(O)c3C(=O)c3c(O)cc(C)cc32)C(O)C(O)C1O (stereo partly specified)", "target-or-test-system": "HCT-15 colon", "TGI": "1.46 µM"}
{"compound": "COC(CCC[N+](C)(C)C)CC[N+](C)(C)C (stereo unspecified)", "target-or-test-system": "HCT-15 colon", "TGI": "> 100 µM"}
{"compound": "C=CCOc1ccc2c(C)cc(=O)oc2c1C", "target-or-test-system": "HCT-15 colon", "TGI": "> 100 µM"}
{"compound": "Cc1cc(Cc2cc(C)c(N)cc2N)c(N)cc1N", "target-or-test-system": "HCT-15 colon", "TGI": "> 100 µM"}
{"compound": "Cc1ccc(NC(=O)Nc2ccc(-c3cccnc3)cc2N2CCC(CO)CC2)cc1", "target-or-test-system": "HCT-15 colon", "TGI": "> 100 µM"}
{"compound": "CCOC(=O)c1csc(NC(=O)CN2CCOCC2)n1", "target-or-test-system": "HCT-15 colon", "TGI": "> 100 µM"}

====

System: OVCAR-4 ovarian
protocol: NCI tumour cell line growth inhibition, 48 h

{"molecule": "Cc1nc2sccn2c1-c1csc(Nc2ccccc2Cl)n1", "target-or-test-system": "OVCAR-4 ovarian", "unit-abbrev": "µM", "value-comparator": "=", "TGI": 83.5}
{"molecule": "O=C1CSC(c2ccc(Cl)cc2)N1c1ccc(Oc2ccc(Cl)cc2)c(Cl)c1 (stereo unspecified)", "target-or-test-system": "OVCAR-4 ovarian", "unit-abbrev": "µM", "value-comparator": "=", "TGI": 28.1}
{"molecule": "Fc1[nH]nc2ccc([C@@H]3Nc4ccc5[nH]ncc5c4[C@H]4C5CCC(C5)[C@@H]34)cc12 (stereo partly specified)", "target-or-test-system": "OVCAR-4 ovarian", "unit-abbrev": "µM", "value-comparator": "=", "TGI": 17.8}
{"molecule": "COC(=O)C1(C(C)C)CCc2c(OC)ccc(OC)c2C1=O (stereo unspecified)", "target-or-test-system": "OVCAR-4 ovarian", "unit-abbrev": "µM", "value-comparator": ">", "TGI": 100}
{"molecule": "CC(=O)NC(Cc1ccc(O)cc1)C(=O)O (stereo unspecified)", "target-or-test-system": "OVCAR-4 ovarian", "unit-abbrev": "µM", "value-comparator": ">", "TGI": 100}
{"molecule": "CC1(C(=O)O)CCC[C@@]2(C)C1CC[C@@]1(C)c3cocc3CCC21 (stereo partly specified)", "target-or-test-system": "OVCAR-4 ovarian", "unit-abbrev": "µM", "value-comparator": ">", "TGI": 100}

====

Test system: M14 melanoma
protocol: NCI tumour cell line growth inhibition, 48 h
*1 amine or outer side, *2 acyl side, *3 side chain or, on linkers, in order; H or OH if unused. Where a SMILES comes first, the peptide text is derived from it. Bridges are numbered along the chain shown (N, C = ends). [ ]: non-standard residue; d: D form. The star is where a group is joined. Phe(3,5-F2) = N[C@@H](Cc1cc(F)cc(F)c1)C(=O)O; Pro(4R-Me) = C[C@H]1CN[C@H](C(=O)O)C1; aThr = C[C@H](O)[C@H](N)C(=O)O; Pip = O=C(O)[C@@H]1CCCCN1; X10 = Fc1cc(C2CC2)ccc1N*; CO = O=C([*:1])[*:2]
parameter-measured: TGI (µM)

{"compound": "CO/C(=N\\N=C\\c1ccc(C(F)(F)F)cc1)c1ccncc1", "value-comparator": ">", "quantitative-result": 10}
{"compound": "CC(=O)[CH-]C(=O)c1ccccc1.CC(=O)[CH-]C(=O)c1ccccc1.CN(C)c1ccc([O-])cc1.CN(C)c1ccc([O-])cc1.Cl.[Ti+4]", "value-comparator": ">", "quantitative-result": 31.6}
{"compound": "Cc1cn2c(/C=N/N=C(N)N)c(-c3cccc([N+](=O)[O-])c3)nc2s1", "value-comparator": "=", "quantitative-result": 4.36}
{"compound": "Nc1nc(SCCc2ccccc2)c2[nH]cnc2n1", "value-comparator": ">", "quantitative-result": 100}
{"compound": "Cc1ccc(CN2CCC(C(=O)Nc3ccc(-c4cc5ccccc5[nH]4)cc3)CC2)o1", "value-comparator": ">", "quantitative-result": 100}
{"compound": "CCC(=O)[C@H](C)[C@@H](OC(=O)[C@H](C)CC)[C@H](C)[C@H]1OC(CC)=C(C)C(=O)[C@@H]1C", "value-comparator": "=", "quantitative-result": 72.5}
{"compound": "COC1/C=C/OC2(C)Oc3c(C)c(O)c4c(O)c(c(/C=N/Nc5ccc([N+](=O)[O-])cc5[N+](=O)[O-])c(O)c4c3C2=O)NC(=O)C(C)=C/C=C/C(C)C(O)C(C)C(O)C(C)C(OC(C)=O)C1C (configuration not stated)", "value-comparator": "=", "quantitative-result": 5.86}
{"compound": "COc1ccc(-c2c(C#N)c(-c3ccc(C)cc3)n(NS(=O)(=O)c3ccc(C)cc3)c(=O)c2C#N)cc1", "value-comparator": ">", "quantitative-result": 100}
{"compound": "C[C@@H]1C[C@H]2C(=O)O[C@@H](C)[C@H](NC(=O)[C@H](Cc3cc(F)cc(F)c3)NC(=O)Nc3ccc(C4CC4)cc3F)C(=O)N3CCC[C@H]3C(=O)N3CCCC[C@H]3C(=O)N[C@@H](C)C(=O)N2C1 ({X10-CO}-[Phe(3,5-F2)][aThr]P[Pip]A[Pro(4R-Me)]; ester 2-C)", "value-comparator": "=", "quantitative-result": 2.41}
{"compound": "CC(C)(C)N1CSC(=S)N(Cc2ccco2)C1", "value-comparator": "=", "quantitative-result": 11.8}
{"compound": "Cc1ccccc1C(=O)N1CCc2c([nH]c3ccccc23)C1", "value-comparator": "=", "quantitative-result": 45.4}
{"compound": "COC(=O)c1ccccc1NC(=O)C(=O)Cc1nc2c3c(ccc2[nH]c1=O)C(=O)c1ccccc1C3=O", "value-comparator": ">", "quantitative-result": 100}
{"compound": "CCCC1C(=O)CCc2c(OC)ccc(OC)c21 (configuration not stated)", "value-comparator": ">", "quantitative-result": 100}
{"compound": "C#CCNC(CS)C(=O)O (configuration not stated)", "value-comparator": ">", "quantitative-result": 100}
{"compound": "CC(C)CCS(=O)(=O)OCCCCOS(=O)(=O)CCC(C)C", "value-comparator": "=", "quantitative-result": 29.6}
{"compound": "COc1cc(/C=N\\NC(=O)CN2CCN(c3cc4c(cc3F)c(=O)c(C(=O)N/N=C/c3cc(OC)c(OC)c(OC)c3)cn4C3CC3)CC2)cc(OC)c1OC", "value-comparator": ">", "quantitative-result": 49.5}
{"compound": "COC(=O)CC[N+]1=CCC(c2ccccc2)(c2ccccc2)O1", "value-comparator": ">", "quantitative-result": 100}
